Data origin: the supplement of paper PMC4862054

Kindly state normalised response for each of the entries shown.
system: MCF-10A; assay: normalised response (% of control), CellTiter-Glo; higher = more viable cells (100 = DMSO, 0 = benzethonium chloride kill control); details: incubation time: 72 h

Study these solved cases before continuing.
molecule	normalised response
C[C@@H](Oc1cc(-c2cnn(C3CCNCC3)c2)cnc1N)c1c(Cl)ccc(F)c1Cl [Crizotinib] (10 nM)	101%
O=C(O)c1ccc(-c2c[nH]c3ncc(-c4ccccc4)cc23)cc1C1CCCC1 (100 nM)	93.1%
CN(N=O)C(=O)N[C@@H](C=O)[C@@H](O)[C@H](O)[C@H](O)CO [Streptozocin] (100 nM)	109%
Cn1c(CCCC(=O)O)nc2cc(N(CCCl)CCCl)ccc21 [Bendamustine] (100 nM)	108%
CNCc1ccc(-c2[nH]c3cc(F)cc4c3c2CCNC4=O)cc1 [Rucaparib] (100 nM)	93.6%

// input: 3 molecules below; output: normalised response for each
1. O=P1(NCCCl)OCCCN1CCCl (stereo not drawn) [Ifosfamide] (100 nM)
2. CS(=O)(=O)c1ccc(C2=C(c3ccccc3)C(=O)OC2)cc1 [Rofecoxib] (100 nM)
3. CN[C@@H]1C[C@H]2O[C@@](C)([C@@H]1OC)n1c3ccccc3c3c4c(c5c6ccccc6n2c5c31)C(=O)N[C@H]4O [UCN-01] (100 nM)

Resp:
1. 97.9%
2. 114%
3. 24%

// input: 5 molecules below; output: normalised response for each
1. O=C(CCCCCCC(=O)Nc1ccc([C@H]2O[C@@H](CSc3nc(-c4ccccc4)c(-c4ccccc4)o3)C[C@@H](c3ccc(CO)cc3)O2)cc1)NO [Tubacin] (100 nM)
2. Cc1ccc(C(=O)N(CCCN)[C@@H](c2oc3cc(Cl)ccc3c(=O)c2Cc2ccccc2)C(C)C)cc1 (1 nM)
3. C[C@]12CC[C@@H]3c4ccc(O)cc4C[C@@H](CCCCCCCCC[S+]([O-])CCCC(F)(F)C(F)(F)F)[C@H]3[C@@H]1CC[C@@H]2O (stereo partly drawn) [Fulvestrant] (10 nM)
4. N#CCNC(=O)c1ccc(-c2ccnc(Nc3ccc(N4CCOCC4)cc3)n2)cc1 [Momelotinib] (100 nM)
5. N.N.[Cl][Pt][Cl] [Cisplatin] (10 nM)

Resp:
1. 106%
2. 97%
3. 109%
4. 85.6%
5. 106%

----------
test system: SK-BR-3; assay: drug sensitivity score (DSS), CellTiter-Glo (DSS (AUC-based score)); higher = stronger drug effect (viability inhibition or cytotoxicity); extreme values may be limits of the assay; settings: incubation time: 72 h
quantity: drug sensitivity score

Study these solved cases before continuing.
compound	measurement.target	reported.measurement
CN[C@@H]1C[C@H]2O[C@@](C)([C@@H]1OC)n1c3ccccc3c3c4c(c5c6ccccc6n2c5c31)C(=O)N[C@H]4O [UCN-01]	SK-BR-3	24
CN(C)/N=N/c1[nH]cnc1C(N)=O [Dacarbazine]	SK-BR-3	0
Oc1nc(-c2ccc(C(F)(F)F)cc2)nc2c1CSCC2 [XAV-939]	SK-BR-3	0
Clc1ccc(Nc2nnc(Cc3ccncc3)c3ccccc23)cc1 [Vatalanib]	SK-BR-3	0
Cn1c(CCCC(=O)O)nc2cc(N(CCCl)CCCl)ccc21 [Bendamustine]	SK-BR-3	0
COc1cc2ncnc(Nc3ccc(F)c(Cl)c3)c2cc1NC(=O)/C=C/CN1CCCCC1 [Dacomitinib]	SK-BR-3	14.6

Req: I'd like to know its drug sensitivity score. The compound in question is N.N.[Cl][Pt][Cl] [Cisplatin]
Resp: 0
